Test system: infecting bacteria of urine samples
Assay: BLT antibiotic susceptibility of urine samples; further: key: R = resistant; S = susceptible
Type: cell-based
Conditions: urine sample 2
Procedure: Six fresh urine samples were obtained from a local clinic and examined for bacteriuria (>10^5 cells/mL urine) and the antibiotic susceptibility of the infecting bacteriuria. […] An equal volume of Medium 2 containing 10 ng/ml autoinducer and supplemented with 10^6 of the lux cells was then added to each well. The microtiter plate was then incubated at 28 degrees/Celsius and the luminescence was measured using a plate reader luminometer. […]
Measured Quantity: antibiotic susceptibility of urine samples

Illustrative cases are given below, each with its answer.
Molecule: Cc1nnc(SCC2=C(C(=O)O)N3C(=O)[C@@H](NC(=O)Cn4cnnn4)[C@H]3SC2)s1 [Cephamezin]
Val: S
//
Molecule: CC1(C)S[C@@H]2[C@H](NC(=O)[C@H](N)c3ccccc3)C(=O)N2[C@H]1C(=O)O [Ampicillin]
Val: R
//
Molecule: Cc1onc(-c2ccccc2Cl)c1C(=O)N[C@@H]1C(=O)N2[C@@H]1SC(C)(C)[C@@H]2C(=O)[O-].[Na+] [Orbenil]
Val: R
//
Molecule: CO/N=C(\C(=O)N[C@@H]1C(=O)N2C(C(=O)O)=C(COC(N)=O)CS[C@H]12)c1ccco1 [Cefuroxime]
Val: S
//
Molecule: NC[C@H]1O[C@H](O[C@H]2[C@H](O)[C@@H](O[C@H]3O[C@H](CO)[C@@H](O)[C@H](N)[C@H]3O)[C@H](N)C[C@@H]2N)[C@H](O)[C@@H](O)[C@@H]1O [Kanamicin, Kanamycin]
Val: S
//
Molecule: CC1(C)S[C@@H]2[C@H](NC(=O)Cc3ccccc3)C(=O)N2[C@H]1C(=O)O [Penicillin G]
Val: R

// switching to the query molecule
Record O=C(N[C@H](CO)[C@H](O)c1ccc([N+](=O)[O-])cc1)C(Cl)Cl [Chloramphenicol] / infecting bacteria of urine samples, antibiotic susceptibility of urine samples recorded as S
